Target or test system: PTPα (Homo sapiens)
Sequence (P18433 20-802): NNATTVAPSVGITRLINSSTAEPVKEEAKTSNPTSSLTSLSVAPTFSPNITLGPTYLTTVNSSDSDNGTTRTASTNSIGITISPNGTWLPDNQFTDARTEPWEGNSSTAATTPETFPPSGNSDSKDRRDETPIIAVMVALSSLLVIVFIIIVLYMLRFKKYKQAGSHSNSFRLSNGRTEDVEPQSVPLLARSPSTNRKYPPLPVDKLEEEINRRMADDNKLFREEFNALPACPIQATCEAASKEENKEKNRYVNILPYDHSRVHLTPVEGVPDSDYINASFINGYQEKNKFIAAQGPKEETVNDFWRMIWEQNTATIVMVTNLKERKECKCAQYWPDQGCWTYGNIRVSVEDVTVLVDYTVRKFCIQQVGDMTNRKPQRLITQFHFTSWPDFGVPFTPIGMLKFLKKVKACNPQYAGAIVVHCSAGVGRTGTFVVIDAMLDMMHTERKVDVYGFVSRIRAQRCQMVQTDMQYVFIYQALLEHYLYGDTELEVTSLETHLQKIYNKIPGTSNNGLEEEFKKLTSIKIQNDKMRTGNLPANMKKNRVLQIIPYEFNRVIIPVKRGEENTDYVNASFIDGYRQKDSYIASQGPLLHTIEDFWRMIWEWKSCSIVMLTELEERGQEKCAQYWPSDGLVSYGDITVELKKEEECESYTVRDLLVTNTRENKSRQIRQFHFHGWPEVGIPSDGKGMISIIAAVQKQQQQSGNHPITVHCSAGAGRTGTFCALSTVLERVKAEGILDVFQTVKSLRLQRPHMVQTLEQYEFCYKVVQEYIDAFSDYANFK
Procedure details: PTP inhibition assay (pNPP)
Format: biochemical
Quantity kind: IC50

[
  {
    "Compound": "O=C(CS(=O)(=O)O)Nc1nc2ccc([N+](=O)[O-])cc2s1",
    "Result": "> 100 µM"
  },
  {
    "Compound": "O=C(C(c1ccccc1)S(=O)(=O)O)N1CCC(Cc2ccccc2)CC1 (centres unmarked)",
    "Result": "> 200 µM"
  },
  {
    "Compound": "O=C(CS(=O)(=O)O)Nc1cnc2ccccc2c1",
    "Result": "> 100 µM"
  },
  {
    "Compound": "O=C(Nc1ccc2nc(C(F)(F)F)[nH]c2c1)C(c1ccccc1)S(=O)(=O)O (centres unmarked)",
    "Result": "> 200 µM"
  },
  {
    "Compound": "O=C(CS(=O)(=O)O)Nc1nc2ccccc2s1",
    "Result": "> 100 µM"
  }
]

* * *

Target or test system: LMWPTP (Homo sapiens, UniProt P24666)
Sequence (P24666 1-158): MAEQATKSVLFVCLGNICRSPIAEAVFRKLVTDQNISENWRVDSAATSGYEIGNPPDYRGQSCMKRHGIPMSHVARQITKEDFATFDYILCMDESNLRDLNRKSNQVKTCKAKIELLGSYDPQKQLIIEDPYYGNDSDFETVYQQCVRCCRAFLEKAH
Procedure details: PTP inhibition assay (pNPP)
Format: biochemical
Setup conditions: […]; LMWPTP
pIC50: −log10 of the molar value.
Quantity kind: pIC50

[
  {
    "Molecule": "O=C(Nc1ccc(N2CCOCC2)cc1)C(c1ccccc1Cl)S(=O)(=O)O (stereo not shown)",
    "Bound sign": "<",
    "Quantitative result": 4.00
  },
  {
    "Molecule": "O=C(C(c1ccc(-c2ccccc2)cc1)S(=O)(=O)O)N1CCc2cc(Br)ccc21 (stereo not shown)",
    "Bound sign": "=",
    "Quantitative result": 4.62
  },
  {
    "Molecule": "Cc1ccc(C(C(=O)Nc2ccc(N3CCOCC3)cc2)S(=O)(=O)O)cc1 (stereo not shown)",
    "Bound sign": "<",
    "Quantitative result": 4.00
  },
  {
    "Molecule": "O=C(NNc1ccccc1)C(c1ccc(-c2ccccc2)cc1)S(=O)(=O)O (stereo not shown)",
    "Bound sign": "=",
    "Quantitative result": 4.49
  },
  {
    "Molecule": "O=C(Nc1ccc(N2CCOCC2)cc1)C(c1cccc(F)c1)S(=O)(=O)O (stereo not shown)",
    "Bound sign": "=",
    "Quantitative result": 4.57
  },
  {
    "Molecule": "O=C(Nc1ccc(OCc2ccccc2)c(Cl)c1)C(c1ccc2ccccc2c1)S(=O)(=O)O (stereo not shown)",
    "Bound sign": "=",
    "Quantitative result": 4.54
  },
  {
    "Molecule": "O=C(NNc1ccccc1)C(c1ccc([N+](=O)[O-])cc1)S(=O)(=O)O (stereo not shown)",
    "Bound sign": "=",
    "Quantitative result": 4.96
  }
]

* * *

Target or test system: Ssu72 (Homo sapiens, UniProt Q9NP77)
Sequence (Q9NP77 whole entry, species assumed): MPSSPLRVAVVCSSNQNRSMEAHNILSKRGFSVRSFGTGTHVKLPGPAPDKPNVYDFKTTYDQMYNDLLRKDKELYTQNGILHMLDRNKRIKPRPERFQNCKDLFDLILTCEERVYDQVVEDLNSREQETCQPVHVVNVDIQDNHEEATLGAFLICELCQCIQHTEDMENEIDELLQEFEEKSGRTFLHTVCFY
Procedure details: PTP inhibition assay (pNPP)
Format: biochemical
Setup conditions: pNPP at Km, pH 7.0, 25° C.; read-out: IC50 Ssu72
Each item that follows carries a reported IC50.

[
  {
    "Compound": "O=C(Nc1ccc(OCc2ccccc2)c(Cl)c1)C(c1ccccc1)S(=O)(=O)O (stereo not shown) [Compound L319M50]",
    "IC50": "66.6 µM"
  },
  {
    "Compound": "O=C(NCCNC(=O)C(c1ccccc1)S(=O)(=O)O)c1cccc(C(=O)c2ccccc2)c1 (stereo not shown) [Compound L319-02-A60]",
    "IC50": "> 200 µM"
  },
  {
    "Compound": "O=C(CS(=O)(=O)O)Nc1nc2ccccc2s1 [Compound L335N15]",
    "IC50": "> 100 µM"
  },
  {
    "Compound": "O=C(C(c1ccccc1)S(=O)(=O)O)N1CCC(c2ccc(Cl)c(Cl)c2)CC1 (stereo not shown) [Compound L319N47]",
    "IC50": "> 200 µM"
  }
]

* * *

Target or test system: Laforin (Homo sapiens)
Sequence (O95278 whole entry): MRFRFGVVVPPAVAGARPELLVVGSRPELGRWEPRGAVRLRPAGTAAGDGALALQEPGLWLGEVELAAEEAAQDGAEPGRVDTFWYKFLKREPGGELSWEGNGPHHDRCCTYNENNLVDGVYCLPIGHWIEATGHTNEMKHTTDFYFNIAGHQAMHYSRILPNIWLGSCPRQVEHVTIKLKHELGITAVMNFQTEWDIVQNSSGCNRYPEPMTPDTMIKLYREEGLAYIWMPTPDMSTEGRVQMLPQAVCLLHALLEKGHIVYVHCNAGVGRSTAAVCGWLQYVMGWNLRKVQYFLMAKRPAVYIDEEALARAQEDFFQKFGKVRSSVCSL
Procedure details: PTP inhibition assay (pNPP)
Format: biochemical
Setup conditions: pNPP at Km, pH 7.0, 25° C.; read-out: IC50 Laforin
pIC50: −log10 of the molar value.
Quantity kind: pIC50

[
  {
    "Molecule": "O=C(Nc1nc2ccccc2s1)C(c1ccccc1Cl)S(=O)(=O)O (stereo not drawn)",
    "Bound sign": "=",
    "Quantitative result": 4.49
  },
  {
    "Molecule": "O=C(C(c1ccccc1)S(=O)(=O)O)N1CCC(Cc2ccccc2)CC1 (stereo not drawn)",
    "Bound sign": "<",
    "Quantitative result": 3.70
  },
  {
    "Molecule": "O=C(Nc1nc2ccc(OC(F)(F)F)cc2s1)C(c1ccccc1)S(=O)(=O)O (stereo not drawn)",
    "Bound sign": "=",
    "Quantitative result": 5.49
  },
  {
    "Molecule": "O=C(Nc1nccs1)C(c1ccccc1)S(=O)(=O)O (stereo not drawn)",
    "Bound sign": "=",
    "Quantitative result": 5.10
  },
  {
    "Molecule": "O=C(Nc1cccc(OCc2ccccc2)c1)C(c1ccccc1)S(=O)(=O)O (stereo not drawn)",
    "Bound sign": "=",
    "Quantitative result": 5.29
  },
  {
    "Molecule": "O=C(CS(=O)(=O)O)Nc1cnc2ccccc2c1",
    "Bound sign": "<",
    "Quantitative result": 4.00
  },
  {
    "Molecule": "O=C(CS(=O)(=O)O)Nc1nc2ccc([N+](=O)[O-])cc2s1",
    "Bound sign": "<",
    "Quantitative result": 4.00
  },
  {
    "Molecule": "O=C(Nc1nc2ccccc2s1)C(c1ccc(Br)cc1)S(=O)(=O)O (stereo not drawn)",
    "Bound sign": "=",
    "Quantitative result": 4.72
  },
  {
    "Molecule": "O=C(Nc1nc2ccc(O[N+](=O)[O-])cc2s1)C(c1ccccc1)S(=O)(=O)O (stereo not drawn)",
    "Bound sign": "<",
    "Quantitative result": 3.70
  }
]

* * *

Each item that follows carries a reported pIC50.
Target or test system: FAP1 (Homo sapiens, UniProt Q12923)
Sequence (Q12923 whole entry): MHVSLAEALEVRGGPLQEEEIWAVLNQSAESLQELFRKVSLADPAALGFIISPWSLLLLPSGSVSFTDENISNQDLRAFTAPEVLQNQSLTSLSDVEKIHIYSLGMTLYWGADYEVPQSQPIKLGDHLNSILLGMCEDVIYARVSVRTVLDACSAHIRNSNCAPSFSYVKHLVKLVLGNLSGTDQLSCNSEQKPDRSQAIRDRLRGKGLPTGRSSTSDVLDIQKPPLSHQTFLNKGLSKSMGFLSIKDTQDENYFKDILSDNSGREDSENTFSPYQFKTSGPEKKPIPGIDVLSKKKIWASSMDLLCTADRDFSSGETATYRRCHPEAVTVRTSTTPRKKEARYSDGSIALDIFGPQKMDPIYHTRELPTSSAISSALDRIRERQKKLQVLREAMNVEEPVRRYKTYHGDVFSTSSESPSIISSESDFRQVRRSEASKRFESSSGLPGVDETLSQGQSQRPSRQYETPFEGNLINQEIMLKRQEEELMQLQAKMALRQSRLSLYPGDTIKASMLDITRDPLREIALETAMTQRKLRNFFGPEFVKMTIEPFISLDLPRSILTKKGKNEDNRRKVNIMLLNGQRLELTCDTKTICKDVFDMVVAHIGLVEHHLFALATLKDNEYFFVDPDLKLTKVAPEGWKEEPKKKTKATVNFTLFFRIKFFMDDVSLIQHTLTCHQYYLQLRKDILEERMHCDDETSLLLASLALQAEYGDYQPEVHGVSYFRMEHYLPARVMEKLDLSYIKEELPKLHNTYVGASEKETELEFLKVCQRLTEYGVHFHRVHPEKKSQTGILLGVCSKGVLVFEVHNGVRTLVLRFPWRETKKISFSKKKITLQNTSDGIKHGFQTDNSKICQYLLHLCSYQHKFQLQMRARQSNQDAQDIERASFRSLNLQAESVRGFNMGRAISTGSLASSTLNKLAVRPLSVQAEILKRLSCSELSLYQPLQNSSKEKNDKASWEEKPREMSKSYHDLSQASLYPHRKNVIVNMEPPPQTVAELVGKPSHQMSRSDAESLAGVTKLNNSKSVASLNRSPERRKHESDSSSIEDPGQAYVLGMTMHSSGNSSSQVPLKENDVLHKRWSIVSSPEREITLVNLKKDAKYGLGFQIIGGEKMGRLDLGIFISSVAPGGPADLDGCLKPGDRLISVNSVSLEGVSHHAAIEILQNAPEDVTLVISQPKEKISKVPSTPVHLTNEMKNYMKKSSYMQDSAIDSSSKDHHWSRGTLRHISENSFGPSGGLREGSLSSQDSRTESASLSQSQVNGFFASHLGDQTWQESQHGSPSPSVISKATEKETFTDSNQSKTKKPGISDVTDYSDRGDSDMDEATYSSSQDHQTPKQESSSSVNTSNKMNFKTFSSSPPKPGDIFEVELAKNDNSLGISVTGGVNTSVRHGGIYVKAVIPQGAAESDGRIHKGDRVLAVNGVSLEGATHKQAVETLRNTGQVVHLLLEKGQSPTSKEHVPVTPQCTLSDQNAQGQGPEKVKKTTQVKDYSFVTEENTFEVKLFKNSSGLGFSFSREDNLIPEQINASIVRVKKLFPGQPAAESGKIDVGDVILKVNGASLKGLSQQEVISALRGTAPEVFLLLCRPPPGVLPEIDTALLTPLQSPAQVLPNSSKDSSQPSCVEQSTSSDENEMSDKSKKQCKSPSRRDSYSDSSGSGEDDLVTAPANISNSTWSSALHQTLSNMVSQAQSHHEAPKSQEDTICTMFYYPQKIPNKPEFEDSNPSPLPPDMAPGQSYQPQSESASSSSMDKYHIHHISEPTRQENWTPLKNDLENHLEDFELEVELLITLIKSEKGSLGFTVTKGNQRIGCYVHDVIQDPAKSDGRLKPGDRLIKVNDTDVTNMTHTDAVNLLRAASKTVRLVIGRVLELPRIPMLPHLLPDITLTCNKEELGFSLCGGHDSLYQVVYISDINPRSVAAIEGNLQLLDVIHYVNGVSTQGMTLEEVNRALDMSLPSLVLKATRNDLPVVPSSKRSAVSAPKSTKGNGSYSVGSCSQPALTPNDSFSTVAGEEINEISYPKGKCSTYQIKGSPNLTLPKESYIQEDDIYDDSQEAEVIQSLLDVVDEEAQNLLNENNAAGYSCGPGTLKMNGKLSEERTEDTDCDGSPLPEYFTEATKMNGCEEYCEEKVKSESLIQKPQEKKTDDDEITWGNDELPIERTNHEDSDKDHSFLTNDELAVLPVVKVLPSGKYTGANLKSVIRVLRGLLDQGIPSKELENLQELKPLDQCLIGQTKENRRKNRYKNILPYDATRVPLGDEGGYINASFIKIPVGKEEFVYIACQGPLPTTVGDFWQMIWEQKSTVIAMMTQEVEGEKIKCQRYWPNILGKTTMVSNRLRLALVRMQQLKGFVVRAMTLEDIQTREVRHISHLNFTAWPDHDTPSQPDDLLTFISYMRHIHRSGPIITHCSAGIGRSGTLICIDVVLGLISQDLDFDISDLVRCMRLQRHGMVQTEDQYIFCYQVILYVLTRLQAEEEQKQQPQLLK
Procedure details: PTP inhibition assay (pNPP)
Type: biochemical
Setup conditions: pNPP at Km, pH 7.0, 25° C.; read-out: IC50 FAP1
pIC50: −log10 of the molar value.
Quantity kind: pIC50

[
  {
    "Molecule": "O=C(C(c1ccccc1)S(=O)(=O)O)N1CCC(Cc2ccccc2)CC1 (stereo not shown)",
    "Quantity kind": "pIC50",
    "Result": "< 3.70"
  },
  {
    "Molecule": "O=C(Nc1cccc(OCc2ccccc2)c1)C(c1ccccc1)S(=O)(=O)O (stereo not shown)",
    "Quantity kind": "pIC50",
    "Result": 4.06
  },
  {
    "Molecule": "O=C(CS(=O)(=O)O)Nc1ccc2nc(C(F)(F)F)[nH]c2c1",
    "Quantity kind": "pIC50",
    "Result": "< 4.00"
  },
  {
    "Molecule": "O=C(CS(=O)(=O)O)Nc1cnc2ccccc2c1",
    "Quantity kind": "pIC50",
    "Result": "< 4.00"
  },
  {
    "Molecule": "O=C(Nc1cnc2ccccc2c1)C(c1ccccc1)S(=O)(=O)O (stereo not shown)",
    "Quantity kind": "pIC50",
    "Result": "< 3.70"
  },
  {
    "Molecule": "O=C(Nc1nc2ccccc2s1)C(c1ccccc1)S(=O)(=O)O (stereo not shown)",
    "Quantity kind": "pIC50",
    "Result": 4.47
  },
  {
    "Molecule": "O=C(Nc1cccc(OCc2ccccc2)c1)C(=O)Nc1ccccc1NC(=O)C(c1ccccc1)S(=O)(=O)O (stereo not shown)",
    "Quantity kind": "pIC50",
    "Result": "< 4.30"
  },
  {
    "Molecule": "O=C(C(c1ccccc1)S(=O)(=O)O)N1CCCC2CCCCC21 (stereo not shown)",
    "Quantity kind": "pIC50",
    "Result": 4.12
  },
  {
    "Molecule": "O=C(C(c1ccccc1)S(=O)(=O)O)N1CCC(c2ccc(Cl)c(Cl)c2)CC1 (stereo not shown)",
    "Quantity kind": "pIC50",
    "Result": 4.68
  },
  {
    "Molecule": "O=C(CS(=O)(=O)O)Nc1nc2ccccc2s1",
    "Quantity kind": "pIC50",
    "Result": "< 4.00"
  },
  {
    "Molecule": "CCCCc1ccc(NC(=O)C(=O)Nc2ccccc2NC(=O)C(c2ccccc2)S(=O)(=O)O)cc1 (stereo not shown)",
    "Quantity kind": "pIC50",
    "Result": "< 4.30"
  },
  {
    "Molecule": "O=C(Nc1ccc(N2CCOCC2)cc1)C(c1ccccc1)S(=O)(=O)O (stereo not shown)",
    "Quantity kind": "pIC50",
    "Result": "< 3.70"
  },
  {
    "Molecule": "O=C(Nc1ccc(OCc2ccccc2)c(Cl)c1)C(c1ccccc1)S(=O)(=O)O (stereo not shown)",
    "Quantity kind": "pIC50",
    "Result": 4.14
  },
  {
    "Molecule": "O=C(NCc1ccc(NC(=O)C(c2ccccc2)S(=O)(=O)O)cc1)c1ccccc1-c1ccc(C(F)(F)F)cc1 (stereo not shown)",
    "Quantity kind": "pIC50",
    "Result": 4.15
  },
  {
    "Molecule": "O=C(CS(=O)(=O)O)Nc1nc2ccc([N+](=O)[O-])cc2s1",
    "Quantity kind": "pIC50",
    "Result": "< 4.00"
  },
  {
    "Molecule": "O=C(NCCNC(=O)C(c1ccccc1)S(=O)(=O)O)c1cccc(C(=O)c2ccccc2)c1 (stereo not shown)",
    "Quantity kind": "pIC50",
    "Result": "< 3.70"
  }
]

Each recorded value in this set is attributed to patent US10494332B2.
